# assay.notes: Inhibition of platelet CRTAase assessed as inhibition of platelet aggregation at 50 uM by spectrophotometry
Active and inactive are the calls of the source. The rule behind the calls is not given here.
Just give me one of these, please: T for active, F for inactive

Reference set, count: 4
smiles_representation=CCCCCCCCc1c(C)c2cc(OC(C)=O)ccc2[nH]c1=O class=T
smiles_representation=CC(=O)Oc1ccc2[nH]c(=O)cc(C(F)(F)F)c2c1 class=T
smiles_representation=CC(=O)Nc1ccc2c(C(F)(F)F)cc(=O)oc2c1 class=T
smiles_representation=CC(=O)Nc1ccc2c(C)cc(=O)[nH]c2c1 class=T

Q: So what was the verdict on CC(=O)Oc1ccc2c(C)cc(=O)oc2c1C(C)=O in this test?
A: F

Q: Can you handle CCc1c(C)c2ccc(NC(C)=O)cc2[nH]c1=O next?
A: T
